assayedTarget: rat CB2 receptor (rCB2) (Rattus norvegicus, UniProt Q9QZN9)
Sequence (Q9QZN9 whole entry): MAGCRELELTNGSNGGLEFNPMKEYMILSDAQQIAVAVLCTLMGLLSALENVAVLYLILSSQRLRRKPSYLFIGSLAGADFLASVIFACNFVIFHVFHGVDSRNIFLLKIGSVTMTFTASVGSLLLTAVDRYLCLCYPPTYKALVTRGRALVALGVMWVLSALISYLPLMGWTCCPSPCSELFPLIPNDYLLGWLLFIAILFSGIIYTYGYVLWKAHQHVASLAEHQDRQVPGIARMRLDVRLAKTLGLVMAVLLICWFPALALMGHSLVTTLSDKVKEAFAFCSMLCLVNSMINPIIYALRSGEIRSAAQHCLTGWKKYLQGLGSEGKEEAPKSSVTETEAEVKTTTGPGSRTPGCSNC
assayDetails: cell-based
Type: cell-based
experimentalContext: agonist or inverse agonist at rCB2
parameterMeasured: +/− RCB2

Recorded results for 5 compounds are shown here.
[[record]]
compound = "CNC(=O)[C@@H](NC(=O)c1nc(-c2ccccc2Cl)n2c1CN(C)CC2)C(C)(C)C"
assayedtarget = "rat CB2 receptor (rCB2) (Rattus norvegicus, UniProt Q9QZN9)"
parametermeasured = "+/− RCB2"
result = "+"

[[record]]
compound = "CNC(=O)[C@@H](NC(=O)c1nc(C(O)C2CC2)n2c1CN(C)CC2)C(C)(C)C (stereo partly shown)"
assayedtarget = "rat CB2 receptor (rCB2) (Rattus norvegicus, UniProt Q9QZN9)"
parametermeasured = "+/− RCB2"
result = "+"

[[record]]
compound = "CN1CCn2c(-c3ccc(Cl)cc3F)nc(C(=O)N3CCC4(CC3)C(=O)NCN4c3ccccc3)c2C1"
assayedtarget = "rat CB2 receptor (rCB2) (Rattus norvegicus, UniProt Q9QZN9)"
parametermeasured = "+/− RCB2"
result = "−"

[[record]]
compound = "Cc1noc([C@@H](NC(=O)c2nc(-c3ccccc3)n3c2CN(C)CCC3)C(C)(C)C)n1"
assayedtarget = "rat CB2 receptor (rCB2) (Rattus norvegicus, UniProt Q9QZN9)"
parametermeasured = "+/− RCB2"
result = "+"

[[record]]
compound = "CC12CCC(C1)C(C)(C)C2NC(=O)c1nc(-c2ccccc2)n2c1CN(C(=O)c1ccco1)CC2 (stereo not shown)"
assayedtarget = "rat CB2 receptor (rCB2) (Rattus norvegicus, UniProt Q9QZN9)"
parametermeasured = "+/− RCB2"
result = "−"


stdin: Which +/− RCB2 value belongs to `COC(=O)[C@@H](NC(=O)c1nc(-c2ccccc2)n2c1CN(C(C)C)CCC2)C(C)(C)C` ?
stdout: −

stdin: Do the same for `CN1CCCn2c(-c3cc(Cl)c(F)cc3F)nc(C(=O)N[C@H](C(N)=O)C(C)(C)C)c2C1` please
stdout: +
